assay: Lipophilicity, logD of the compound by shake flask assay; type: physicochemical; settings: octanol/water
Readout Label: logD
Reply briefly: the number, and no unit.

Look over these answered cases.
- COc1ccc2ccc(=O)n(CCN[C@H]3CC[C@H]4[C@H](C3)OC(=O)N4c3ccc4c(n3)NC(=O)C(C)(C)O4)c2n1: 2.84
- O=C1COc2ccc(N3C(=O)O[C@H]4C[C@@H](NCCn5c(=O)cnc6ccc(F)cc65)CC[C@@H]43)nc2N1: 1.58
- COc1ccc2ccc(=O)n(CCN[C@@H]3CC[C@@H]4[C@@H](C3)OC(=O)N4c3ccc4c(n3)NC(=O)CO4)c2n1: 1.8
- O=C1COc2ccc(N3C(=O)O[C@H]4C[C@@H](NCCCn5c(=O)cnc6ccc(F)cc65)CC[C@@H]43)nc2N1: 1.26
- COc1ccc2ccc(=O)n(CCN[C@@H]3CC[C@@H]4[C@H](C3)OC(=O)N4c3ccc4c(n3)NC(=O)CO4)c2n1: 2

Note: attention shifts to another entry.
Q: I am curious: what logD value has been reported for N#Cc1ccc2ccc(=O)n(CCCN[C@H]3CC[C@H]4[C@H](C3)OC(=O)N4c3ccc4c(n3)NC(=O)CO4)c2c1 ?
Result: 1.03

Taken from ChEMBL document CHEMBL5143607.
